- MEASURED TARGET: Cytochrome P450 2C19 (Homo sapiens) (UniProt P33261)
- Sequence (P33261 whole entry, looked up): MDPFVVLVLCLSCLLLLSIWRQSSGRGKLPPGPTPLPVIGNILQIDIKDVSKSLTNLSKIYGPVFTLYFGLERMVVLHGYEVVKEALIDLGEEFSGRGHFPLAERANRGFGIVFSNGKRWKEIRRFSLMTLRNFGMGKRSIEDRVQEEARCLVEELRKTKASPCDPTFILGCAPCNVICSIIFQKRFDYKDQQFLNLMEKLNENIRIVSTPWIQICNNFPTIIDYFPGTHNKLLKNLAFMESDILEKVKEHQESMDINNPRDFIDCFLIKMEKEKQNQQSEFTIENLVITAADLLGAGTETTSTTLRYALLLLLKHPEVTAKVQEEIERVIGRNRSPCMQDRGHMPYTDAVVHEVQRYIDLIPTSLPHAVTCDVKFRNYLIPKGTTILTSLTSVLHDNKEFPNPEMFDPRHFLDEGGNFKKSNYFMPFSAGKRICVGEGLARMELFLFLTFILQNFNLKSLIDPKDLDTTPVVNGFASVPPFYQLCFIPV
- ASSAY DETAILS: qHTS Assay for Inhibitors and Substrates of Cytochrome P450 2C19 (AID 899); also: nearly all actives have a fitted effect of over 60% in size
- EXPERIMENTAL PARAMETERS: recombinant CYP2C19, luciferin-H EGE luminescence; series mostly up to 57.1 µM
Inconclusive results are not listed. Active and inactive are the calls of the source. Calls follow the shape of the dose curve; as a rule, active = well fitted inhibition curve with a large enough effect; inconclusive = small, poorly fitted or top-dose-only effect; inactive = no such curve, though single readings can be large or run the other way.
Hello, when you answer, please use one of the following outcomes: 1.0 (active), 0.0 (inactive)

What did the test return for CN[C@H](CC(=O)O)C(=O)O ?
0.0

Recorded call for CC(=O)C(C)=O ?
0.0

Recorded test call requested for NC(=O)c1ccccc1
0.0

Outcome logged for C[C@](Cc1ccc(O)c(O)c1)(NN)C(=O)O in this assay:
0.0

Entry NC/C=C\C(=O)O : call = ?
0.0

Test call for this compound, please: CCCc1c(-c2ccc(O)cc2)nn(-c2ccc(O)cc2)c1-c1ccc(O)cc1
1.0

Called result for OC1(c2ccc(Cl)cc2)CCN(Cc2c[nH]c3ccccc23)CC1
0.0

What is the recorded call for this compound in the test? Cn1c(=O)c2[nH]c(-c3ccc(S(=O)(=O)O)cc3)nc2n(C)c1=O
0.0

Fill in: this test's call for C=C1C(=O)O[C@@H]2[C@H]3O[C@]3(C)CCC=C(C)CC[C@@H]12 is ___
0.0

How did this test come out for O=c1[nH]c(=O)c2nc3ccccc3nc2[nH]1 ?
0.0

GET /call?item= CNc1cc(NS(=O)(=O)c2ccc(N)cc2)nc(NC)n1 returns the recorded outcome of this test.
0.0

Check the results log: what was the call for NC(N)=NC(N)=Nc1ccccc1 ?
0.0

Dear colleague, could you share the recorded outcome for Cc1nc2c(OCc3ccccc3)cccn2c1CC#N when you have a moment?
0.0

What is the recorded call for this compound in the test? CNC(=O)c1cc2c(cn1)[nH]c1ccccc12
0.0

Assay result, entry N[C@H](C(=O)O)c1cc(O)cc(O)c1 — outcome?
0.0

Hello, I am checking results. What call was entered for CCn1c(=O)[nH]c2cc(Cl)c(Cl)cc21 ?
0.0

Outcome logged for NC1(C(=O)O)CCCCC1 in this assay:
0.0

Tell me the assay call for CC[C@H](NC(=O)c1c(C)c(-c2ccccc2)nc2ccccc12)c1ccccc1 please.
1.0

What was the test verdict on Oc1cc(O)c2c(c1)O[C@H](c1ccc(O)c(O)c1)[C@@H](O)C2 ?
0.0
